Assay: Dynamic surface tension of aqueous solutions, maximum bubble pressure method
Type: physicochemical
Conditions: negative logarithm of molar concentration giving 52.1 dyne/cm at 0.1 b/s
Quantity measured: pC20
Lab note: record the figure alone, no unit after it.

Indicate the recorded pC20 value for this molecule: CCCCCOC(=O)C(O)C(O)C(=O)OCCCCC (racemic) [Example 5, Dipentyl-DL-tartrate] 3.3

Answer with reported pC20 of CCC(C)OC(=O)C(O)C(O)C(=O)OC(C)CC (racemic) [Example 4, Di-sec-butyl-DL-tartrate] 2.5

Give the reported value of pC20 for this record: CCC(C)COC(=O)C(O)C(O)C(=O)OCC(C)CC (racemic) [Example 7, Di(2-methyl-butyl)-DL-tartrate] 3.2

Note pC20 for the molecule shown: CCCCCCOC(=O)C(O)C(O)C(=O)OCCCCCC (racemic) [Example 9, Dihexyl-DL-tartrate] 3.8

Tell me pC20 reported for CC(C)(C)COC(=O)C(O)C(O)C(=O)OCC(C)(C)C (racemic) [Example 8, Dineopentyl-DL-tartrate] 3.5

Give the reported pC20 for this molecule. CC(C)CCOC(=O)C(O)C(O)C(=O)OCCC(C)C (racemic) [Example 6, Diisoamyl-DL-tartrate] 3.7

Using known records, supply pC20 for CCCCC(CC)COC(=O)C(O)C(O)C(=O)OCC(CC)CCCC (racemic) [Example 12, Di(2-ethylhexyl)-DL-tartrate] 1.6

* * *

Experiment: Solubility limit in water from surface tension/ln concentration curve
Type: physicochemical
Conditions: in distilled water
Description: Solutions of the materials of Examples 1-12 in distilled water were prepared. […] The solubility limit was determined by intersection of the linear portion of a surface tension/In concentration curve with the limiting surface tension as is described in many textbooks. […]
Quantity measured: solubility limit (Weight %)
Respond with the bare value in Weight %.

>>> assay_value("CCC(C)OC(=O)C(O)C(O)C(=O)OC(C)CC (racemic) [Example 4, Di-sec-butyl-DL-tartrate]")
1.7
>>> assay_value("CCC(C)COC(=O)C(O)C(O)C(=O)OCC(C)CC (racemic) [Example 7, Di(2-methyl-butyl)-DL-tartrate]")
0.1
>>> assay_value("CC(C)CCOC(=O)C(O)C(O)C(=O)OCCC(C)C (racemic) [Example 6, Diisoamyl-DL-tartrate]")
0.1
>>> assay_value("CCCCOC(=O)C(O)C(O)C(=O)OCCCC (racemic) [Example 2, Dibutyl-L-tartrate]")
1.1
>>> assay_value("CCCCCOC(=O)C(O)C(O)C(=O)OCCCCC (racemic) [Example 5, Dipentyl-DL-tartrate]")
0.1
>>> assay_value("CC(C)(C)COC(=O)C(O)C(O)C(=O)OCC(C)(C)C (racemic) [Example 8, Dineopentyl-DL-tartrate]")
0.2

Entry CCCCCCOC(=O)C(O)C(O)C(=O)OCCCCCC (racemic) [Example 9, Dihexyl-DL-tartrate] needs its solubility limit filled in; supply it. 0.01

Recall and state the measured solubility limit for CCCCC(CC)COC(=O)C(O)C(O)C(=O)OCC(CC)CCCC (racemic) [Example 12, Di(2-ethylhexyl)-DL-tartrate] . 0.06

Give the reported solubility limit for this compound. CC(C)COC(=O)C(O)C(O)C(=O)OCC(C)C (racemic) [Example 3, Diisobutyl-DL-tartrate] 0.7

Supply reported solubility limit belonging to this compound: CC(C)CC(C)OC(=O)C(O)C(O)C(=O)OC(C)CC(C)C (racemic) [Example 10, Di(4-methyl-2-pentyl)-DL-tartrate] 0.02

// fetch solubility limit given entry O=C(OCc1ccccc1)C(O)C(O)C(=O)OCc1ccccc1 (racemic) [Example 11, Dibenzyl-DL-tartrate] 0.05

* * *

Assay: Dynamic surface tension of aqueous solutions, maximum bubble pressure method
Assay type: physicochemical
Conditions: 0.1 wt % solution; 6 b/s
Threshold-based label: γ (0.1 wt % solution) (6 b/s) under 40 Dyne/cm gives Satisfied, γ (0.1 wt % solution) (6 b/s) not under 40 Dyne/cm gives Not satisfied.

>>> class("O=C(OCc1ccccc1)C(O)C(O)C(=O)OCc1ccccc1 (racemic) [Example 11, Dibenzyl-DL-tartrate]")
"Not satisfied"

Does this compound meet the criterion γ (0.1 wt % solution) (6 b/s) < 40 Dyne/cm? CCCCC(CC)COC(=O)C(O)C(O)C(=O)OCC(CC)CCCC (racemic) [Example 12, Di(2-ethylhexyl)-DL-tartrate] Not satisfied

Decide: γ (0.1 wt % solution) (6 b/s) of CC(C)COC(=O)C(O)C(O)C(=O)OCC(C)C (racemic) [Example 3, Diisobutyl-DL-tartrate] strictly below 40 Dyne/cm? Not satisfied

Is γ (0.1 wt % solution) (6 b/s) strictly under 40 Dyne/cm for the entry CCCCCCOC(=O)C(O)C(O)C(=O)OCCCCCC (racemic) [Example 9, Dihexyl-DL-tartrate] ? Not satisfied

Check if γ (0.1 wt % solution) (6 b/s) falls below 40 Dyne/cm for CC(C)CCOC(=O)C(O)C(O)C(=O)OCCC(C)C (racemic) [Example 6, Diisoamyl-DL-tartrate] . Satisfied

* * *

Experiment: Dynamic surface tension of aqueous solutions, maximum bubble pressure method
Format: physicochemical
Conditions: lowest surface tension in water; 20 b/s
Quantity measured: limiting γ (20 b/s) (Dyne/cm)
Only the number, expressed in Dyne/cm, is required.

Identify measured limiting γ (20 b/s) corresponding to CCC(C)COC(=O)C(O)C(O)C(=O)OCC(C)CC (racemic) [Example 7, Di(2-methyl-butyl)-DL-tartrate] 38.5

Read off the recorded limiting γ (20 b/s) for CCCCCCOC(=O)C(O)C(O)C(=O)OCCCCCC (racemic) [Example 9, Dihexyl-DL-tartrate] 70.0

Give a short answer stating reported limiting γ (20 b/s) for CC(C)CC(C)OC(=O)C(O)C(O)C(=O)OC(C)CC(C)C (racemic) [Example 10, Di(4-methyl-2-pentyl)-DL-tartrate] . 68.2

* * *

Test: Foam test based upon ASTM D 1173-53
Format: physicochemical
Details: 0.1 wt % solution
Quantity measured: initial foam (cm)
State the answer as a number, implicitly in cm.

Reference set, count: 5
>>> assay_value("CCCCCCOC(=O)C(O)C(O)C(=O)OCCCCCC (racemic) [Example 9, Dihexyl-DL-tartrate]")
1.3
>>> assay_value("CCC(C)COC(=O)C(O)C(O)C(=O)OCC(C)CC (racemic) [Example 7, Di(2-methyl-butyl)-DL-tartrate]")
0
>>> assay_value("CC(C)CCOC(=O)C(O)C(O)C(=O)OCCC(C)C (racemic) [Example 6, Diisoamyl-DL-tartrate]")
0
>>> assay_value("CC(C)(C)COC(=O)C(O)C(O)C(=O)OCC(C)(C)C (racemic) [Example 8, Dineopentyl-DL-tartrate]")
0
>>> assay_value("CCCCC(CC)COC(=O)C(O)C(O)C(=O)OCC(CC)CCCC (racemic) [Example 12, Di(2-ethylhexyl)-DL-tartrate]")
0

Please report initial foam for the following compound: CC(C)CC(C)OC(=O)C(O)C(O)C(=O)OC(C)CC(C)C (racemic) [Example 10, Di(4-methyl-2-pentyl)-DL-tartrate] 0.8

Supply initial foam value. Item: O=C(OCc1ccccc1)C(O)C(O)C(=O)OCc1ccccc1 (racemic) [Example 11, Dibenzyl-DL-tartrate] 1.3

* * *

Experiment: Foam test based upon ASTM D 1173-53
Type: physicochemical
Details: 0.1 wt % solution
Quantity measured: time to zero foam (s)
The figure you give is taken to be in s; do not add the unit.

Sample answers from the record:
>>> assay_value("O=C(OCc1ccccc1)C(O)C(O)C(=O)OCc1ccccc1 (racemic) [Example 11, Dibenzyl-DL-tartrate]")
0.1
>>> assay_value("CC(C)COC(=O)C(O)C(O)C(=O)OCC(C)C (racemic) [Example 3, Diisobutyl-DL-tartrate]")
0.3
>>> assay_value("CCC(C)OC(=O)C(O)C(O)C(=O)OC(C)CC (racemic) [Example 4, Di-sec-butyl-DL-tartrate]")
0.4
>>> assay_value("CC(C)CC(C)OC(=O)C(O)C(O)C(=O)OC(C)CC(C)C (racemic) [Example 10, Di(4-methyl-2-pentyl)-DL-tartrate]")
0.3

# next compound below
Give me measured time to zero foam, please, for this compound: CCCCCCOC(=O)C(O)C(O)C(=O)OCCCCCC (racemic) [Example 9, Dihexyl-DL-tartrate] 0.1

* * *

Entries annotated with measured limiting γ (1 b/s)
Experiment: Dynamic surface tension of aqueous solutions, maximum bubble pressure method
Format: physicochemical
Conditions: lowest surface tension in water; 1 b/s
Please reply with the bare figure in Dyne/cm and do not write the unit itself.

>>> assay_value("CC(C)COC(=O)C(O)C(O)C(=O)OCC(C)C (racemic) [Example 3, Diisobutyl-DL-tartrate]")
39.3
>>> assay_value("CCCCC(CC)COC(=O)C(O)C(O)C(=O)OCC(CC)CCCC (racemic) [Example 12, Di(2-ethylhexyl)-DL-tartrate]")
69.8

Now consider a different compound.
Indicate its recorded limiting γ (1 b/s); the compound in question is CC(C)CC(C)OC(=O)C(O)C(O)C(=O)OC(C)CC(C)C (racemic) [Example 10, Di(4-methyl-2-pentyl)-DL-tartrate] 49.9
